- Species: Homo sapiens
- test.details: Selectivity ratio of IC50 for ALK2 (unknown origin) to IC50 for ALK5 (unknown origin)
property.measured: Ratio IC50
Give bare numbers.

Look over these answered cases.
smiles.text | property.measured | meas.value
Cc1c(F)ccc2c(Nc3ccnc(Nc4ccc(N5CCN(C)CC5)cc4)n3)cnnc12 | Ratio IC50 | 10
Cc1cc(F)cc2c(Nc3ccnc(Nc4ccc(N5CCN(C)CC5)cc4)n3)cnnc12 | Ratio IC50 | 10
Cc1cccc2c(Nc3ccnc(Nc4ccc(N5CCOCC5)c(Cl)c4)n3)cnnc12 | Ratio IC50 | 10
Cc1c(F)ccc2c(Nc3ccnc(Nc4ccc(N5CCNCC5)cc4)n3)cnnc12 | Ratio IC50 | 10
Cc1cccc2c(Nc3ccnc(Nc4cc(CN5CCNCC5)ccc4F)n3)cnnc12 | Ratio IC50 | 10
Cc1cccc2c(Nc3ccnc(Nc4ccc(N5CCOCC5)cc4)n3)cnnc12 | Ratio IC50 | 10
Cc1cccc2c(Nc3ccnc(Nc4ccc(N5CCNCC5)c(F)c4)n3)cnnc12 | Ratio IC50 | 10
Cc1cccc2c(Nc3ccnc(Nc4ccc(CC5CCNCC5)cc4)n3)cnnc12 | Ratio IC50 | 10

Shifting focus to the compound that follows.
Form: compound = `Cc1cccc2c(Nc3ccnc(Nc4cccc(N5CCOCC5)c4)n3)cnnc12` ; Ratio IC50 = 10

----------
- target.entity: TGF-beta receptor type-1 (Homo sapiens) (UniProt P36897)
- Sequence (P36897 whole entry): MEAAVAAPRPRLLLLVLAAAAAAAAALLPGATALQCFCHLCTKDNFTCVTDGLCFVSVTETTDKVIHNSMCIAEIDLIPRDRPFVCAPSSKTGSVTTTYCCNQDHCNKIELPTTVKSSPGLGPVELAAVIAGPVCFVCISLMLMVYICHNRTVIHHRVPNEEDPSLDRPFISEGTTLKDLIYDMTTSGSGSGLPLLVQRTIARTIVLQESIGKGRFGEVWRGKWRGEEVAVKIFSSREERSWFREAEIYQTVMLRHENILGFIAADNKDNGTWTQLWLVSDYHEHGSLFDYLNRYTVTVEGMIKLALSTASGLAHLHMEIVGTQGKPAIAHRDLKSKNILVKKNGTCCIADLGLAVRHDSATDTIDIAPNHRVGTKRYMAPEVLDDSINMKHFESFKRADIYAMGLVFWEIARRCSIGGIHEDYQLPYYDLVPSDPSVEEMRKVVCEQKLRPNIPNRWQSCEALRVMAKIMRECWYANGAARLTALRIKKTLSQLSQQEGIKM
- test.details: Inhibition of TGF-beta receptor 1 in human RD cells transfected with Smad reporter plasmid by reporter gene based One-Glo luciferase assay
- Format: cell-based
Please provide measured INH for the entries that follow.

Here is how some molecules turned out for INH.
smiles.text | target.entity | INH
Cc1cccc2c(Nc3ccnc(Nc4ccc(N5CCNCC5)c(F)c4)n3)cnnc12 | TGF-beta receptor type-1 (Homo sapiens) (UniProt P36897) | < 100 nM
Cc1cccc2c(Nc3ccnc(Nc4cc(F)cc(CN5CCNCC5)c4)n3)cnnc12 | TGF-beta receptor type-1 (Homo sapiens) (UniProt P36897) | < 100 nM
Cc1cc(F)cc2c(Nc3ccnc(Nc4ccc(N5CCN(C)CC5)cc4)n3)cnnc12 | TGF-beta receptor type-1 (Homo sapiens) (UniProt P36897) | < 100 nM
Cc1cccc2c(Nc3nc(Nc4cc(CN5CCNCC5)ccc4F)ncc3F)cnnc12 | TGF-beta receptor type-1 (Homo sapiens) (UniProt P36897) | < 1000 nM
Cc1cccc2c(Nc3ccnc(Nc4ccc(N5CCOCC5)c(Cl)c4)n3)cnnc12 | TGF-beta receptor type-1 (Homo sapiens) (UniProt P36897) | < 100 nM

State recorded INH for all listed molecules.
1. Cc1cccc2c(Nc3ccnc(Nc4cc(CN5CCNCC5)ccc4F)n3)cnnc12
2. Cc1cccc2c(Nc3ccnc(Nc4ccc(CC5CCNCC5)cc4)n3)cnnc12
3. Cc1cccc2c(Nc3ccnc(Nc4ccc(N5CCOCC5)cc4)n3)cnnc12
4. Cc1c(F)ccc2c(Nc3ccnc(Nc4ccc(N5CCN(C)CC5)cc4)n3)cnnc12
5. Cc1cccc2c(Nc3ccnc(Nc4cccc(N5CCOCC5)c4)n3)cnnc12
6. Cc1c(F)ccc2c(Nc3ccnc(Nc4ccc(N5CCNCC5)cc4)n3)cnnc12
7. Cc1cccc2c(Nc3ccnc(Nc4cccc(CN5CCN(C)CC5)c4)n3)cnnc12

["< 1000 nM", "< 1000 nM", "< 100 nM", "< 100 nM", "< 100 nM", "< 100 nM", "< 100 nM"]

Source of measurements: ChEMBL document CHEMBL5126651
